molecular target: Ataxin-2 (Homo sapiens) (UniProt Q99700); assay: qHTS for Inhibitors of ATXN expression.; format: functional
Sequence (Q99700 whole entry): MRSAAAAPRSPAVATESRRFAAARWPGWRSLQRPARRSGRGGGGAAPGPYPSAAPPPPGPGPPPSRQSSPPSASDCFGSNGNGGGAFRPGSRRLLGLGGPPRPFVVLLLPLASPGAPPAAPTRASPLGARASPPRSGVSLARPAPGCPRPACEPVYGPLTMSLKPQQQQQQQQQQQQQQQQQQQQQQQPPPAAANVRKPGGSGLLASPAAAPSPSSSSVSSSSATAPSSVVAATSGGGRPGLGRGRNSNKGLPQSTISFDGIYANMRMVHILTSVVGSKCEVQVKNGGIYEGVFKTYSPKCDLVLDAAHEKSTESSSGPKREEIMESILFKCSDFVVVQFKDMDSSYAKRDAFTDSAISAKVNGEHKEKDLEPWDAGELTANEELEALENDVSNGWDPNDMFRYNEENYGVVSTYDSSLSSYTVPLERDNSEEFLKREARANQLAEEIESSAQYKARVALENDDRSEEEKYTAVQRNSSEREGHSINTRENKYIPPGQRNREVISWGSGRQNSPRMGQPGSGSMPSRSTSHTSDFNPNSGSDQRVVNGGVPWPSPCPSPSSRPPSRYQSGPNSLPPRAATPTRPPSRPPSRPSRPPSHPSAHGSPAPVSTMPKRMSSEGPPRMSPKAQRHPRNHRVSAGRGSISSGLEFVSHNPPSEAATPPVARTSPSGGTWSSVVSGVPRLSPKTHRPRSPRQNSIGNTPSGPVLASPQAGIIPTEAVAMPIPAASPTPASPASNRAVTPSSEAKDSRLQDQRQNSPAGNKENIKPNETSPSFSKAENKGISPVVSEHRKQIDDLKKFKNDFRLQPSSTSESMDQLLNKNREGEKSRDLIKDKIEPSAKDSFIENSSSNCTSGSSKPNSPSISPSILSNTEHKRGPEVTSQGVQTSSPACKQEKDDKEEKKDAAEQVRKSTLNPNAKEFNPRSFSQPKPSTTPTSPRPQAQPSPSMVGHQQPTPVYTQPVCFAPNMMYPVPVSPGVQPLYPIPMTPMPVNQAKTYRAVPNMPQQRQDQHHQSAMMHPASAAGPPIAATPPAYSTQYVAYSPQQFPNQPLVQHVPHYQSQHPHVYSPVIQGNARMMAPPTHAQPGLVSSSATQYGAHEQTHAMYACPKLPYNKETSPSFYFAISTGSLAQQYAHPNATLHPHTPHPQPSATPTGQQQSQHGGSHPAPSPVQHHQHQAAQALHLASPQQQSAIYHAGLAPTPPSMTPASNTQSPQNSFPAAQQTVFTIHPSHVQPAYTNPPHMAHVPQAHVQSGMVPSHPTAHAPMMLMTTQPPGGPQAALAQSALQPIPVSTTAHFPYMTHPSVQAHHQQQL
The campaign covered roughly 400,000 compounds. About 2,100 (0.53%) were called active. About 14% were inconclusive and are not listed. The rule behind the calls is not given here. This excerpt belongs to a sample that is enriched for actives.
Please state which outcome applies, choosing from yes = active, no = inactive

These solved cases illustrate the format of a correct answer.
Compound | Answer label
Cn1cc(/C=N/NC(=O)c2cc3cc(Br)ccc3o2)c2ccccc21 | no
Cc1cccc(OCC(O)Cn2c(=N)n(CCN3CCCCC3)c3ccccc32)c1 (configuration not stated) | yes
CC1(C)CC(N/C=C2/C(=O)N(Cc3ccc4c(c3)OCO4)C(=O)c3ccccc32)CC(C)(C)N1 | yes
Cc1cc(-c2ccnc(-n3ncc(C(=O)NC(C)(C)CO)c3C3CC3)n2)c(C)s1 | no
CCOC(=O)CC(NC(=O)CCc1c(C)nc2c(-c3ccccc3)c(C)nn2c1C)c1ccc(OC(C)C)cc1 (configuration not stated) | yes
OC(CN1C2=NCCCN2c2ccccc21)c1ccc2c(c1)OCO2 (configuration not stated) | no
CC/C(=N\Nc1ccc([N+](=O)[O-])cc1[N+](=O)[O-])c1ccc(O)cc1 | yes
N=c1n(CCN2CCCC2)c2ccccc2n1CC(O)c1ccc(Cl)c(Cl)c1 (configuration not stated) | yes
O=c1c2ccccc2n(CC(O)CN2CCCCC2)c2ccccc12 (configuration not stated) | no
Cc1nc2sc(C(=O)OC(C)C)c(N)c2c(C)c1C | no

Please indicate how the test categorized C/C(CCCO)=N/Nc1ccc([N+](=O)[O-])cc1[N+](=O)[O-] .
no

Another: Cc1cccc(OCC(O)Cn2ccnc2C)c1 (configuration not stated)
no

Another: CC(C)Nc1ccc(Nc2ccnc3cc4ccccc4cc23)cc1
yes

Another: COc1ccc(C2c3[nH]c4ccccc4c3CCN2CCCn2cccn2)c(C)c1C (configuration not stated)
no

Another: CCOC(=O)CC1c2nc3ccccc3cc2CN1C(=O)OCC (configuration not stated)
no

Another: Oc1cccc(Nc2c3ccccc3nc3ccccc23)c1
no

Another: Cc1c(CCC(=O)O)c(=O)oc2c(C)c3occ(-c4ccc(Cl)cc4)c3cc12
no

Another: COc1cccc(NC(=O)COC(=O)CCC(=O)c2cccs2)c1
no

Another: CC(C)Oc1ccc(C(=O)/C=C2/C(=O)Nc3ccccc32)cc1
yes

Another: Cc1cc(Nc2cccc(O)c2)c2cccc(Br)c2n1
yes

Another: COCCNc1oc(/C=C/c2cccs2)nc1S(=O)(=O)c1ccccc1
no

Another: CN(C)CCN/C=C1/C(=O)N(Cc2ccc3c(c2)OCO3)C(=O)c2ccccc21
no
